# study.target: JNK1 (Homo sapiens, UniProt P45983)
# Sequence (P45983 whole entry, species assumed): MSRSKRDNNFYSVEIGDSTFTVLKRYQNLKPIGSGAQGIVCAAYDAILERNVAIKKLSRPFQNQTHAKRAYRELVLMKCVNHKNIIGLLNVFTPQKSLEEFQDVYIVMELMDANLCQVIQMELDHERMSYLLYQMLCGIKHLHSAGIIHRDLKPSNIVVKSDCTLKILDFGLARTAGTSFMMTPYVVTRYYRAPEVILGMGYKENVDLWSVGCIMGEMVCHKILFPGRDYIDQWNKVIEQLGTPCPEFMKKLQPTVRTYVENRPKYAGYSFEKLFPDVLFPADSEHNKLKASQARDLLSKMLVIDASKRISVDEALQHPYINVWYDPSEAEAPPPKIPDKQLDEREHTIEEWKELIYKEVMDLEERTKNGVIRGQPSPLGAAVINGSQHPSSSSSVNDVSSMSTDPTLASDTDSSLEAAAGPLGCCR
# experiment.summary: DELFIA kinase assay, JNK1
# Assay type: biochemical
# condition.details: DELFIA, biotinylated GST-ATF2 substrate, 10 minute pre-incubation, final ATP 7 uM

molecule	IC50
CS(=O)(=O)c1ccc(-n2cc(CNC(=O)c3cccc(-n4cc(-c5cccc(F)c5)cn4)n3)cn2)cc1 [Compound 295]	102 to 959 nM
Nc1nc2ccc(CNC(=O)c3cccc(C(=O)N4CCCC(CO)C4)n3)cc2s1 (centres unmarked) [Compound 37]	> 1000 nM
CC(CO)NC(=O)c1cccc(C(=O)NCc2ccc3nc(N)sc3c2)n1 (centres unmarked) [Compound 18]	102 to 959 nM
CCOC(=O)N1CCC(NC(=O)c2cccc(N(C)CCc3ccncc3)n2)CC1 [Compound 394]	> 1000 nM
Nc1nc2ccc(CNC(=O)c3cccc(C(=O)N4CCCCC4CO)n3)cc2s1 (centres unmarked) [Compound 36]	> 1000 nM
CNC(=S)N1CCC(NC(=O)c2cccc(C(=O)NCc3ccc(S(C)(=O)=O)cc3)n2)CC1 [Compound 57]	102 to 959 nM
O=C(NCc1cccnc1)c1cccc(-n2cc(I)cn2)n1 [Compound 289]	102 to 959 nM
CC(C)NC(=O)c1cccc(C(=O)NCc2ccc(-c3ccc(S(C)(=O)=O)cc3)cc2)n1 [Compound 196]	102 to 959 nM

---

Listed next: entries and their corresponding IC50.
# study.target: JNK1 (Homo sapiens)
# experiment.summary: DELFIA kinase assay, JNK1
# Assay type: biochemical
# condition.details: DELFIA, biotinylated GST-ATF2 substrate, 10 minute pre-incubation, final ATP 7 uM
outcome.measure: IC50

structure	result
Cc1ccc(-c2ccc(CNC(=O)c3cccc(C(=O)NC(C)C)n3)cn2)cc1	102 to 959 nM
Cc1nc2ccc(CNC(=O)c3cccc(C(=O)NC(C)C)n3)cc2n1C	102 to 959 nM
CC(C)NC(=O)c1cccc(C(=O)NCc2cnn(-c3ccc4cncnc4c3)c2)n1	4 to 97 nM
CS(=O)(=O)c1ccc(CNC(=O)c2cccc(-c3nc4ccccc4[nH]3)n2)cc1	102 to 959 nM
Nc1nc2ccc(CNC(=O)c3cccc(C(=O)NC4CCCCC4)n3)cc2s1	4 to 97 nM
Nc1nc2ccc(CNC(=O)c3cccc(C(=O)NC[C@H](O)c4ccccc4)n3)cc2s1	102 to 959 nM
CC(C)NC(=O)c1cccc(C(=O)NCc2cncc(-c3cccc(C#N)c3)c2)n1	4 to 97 nM
CC(C)NC(=O)c1cccc(C(=O)NCc2ccc(N3CCOCC3)nc2)n1	102 to 959 nM

---

# study.target: JNK3 (Homo sapiens, UniProt P53779)
# Sequence (P53779 whole entry, species assumed): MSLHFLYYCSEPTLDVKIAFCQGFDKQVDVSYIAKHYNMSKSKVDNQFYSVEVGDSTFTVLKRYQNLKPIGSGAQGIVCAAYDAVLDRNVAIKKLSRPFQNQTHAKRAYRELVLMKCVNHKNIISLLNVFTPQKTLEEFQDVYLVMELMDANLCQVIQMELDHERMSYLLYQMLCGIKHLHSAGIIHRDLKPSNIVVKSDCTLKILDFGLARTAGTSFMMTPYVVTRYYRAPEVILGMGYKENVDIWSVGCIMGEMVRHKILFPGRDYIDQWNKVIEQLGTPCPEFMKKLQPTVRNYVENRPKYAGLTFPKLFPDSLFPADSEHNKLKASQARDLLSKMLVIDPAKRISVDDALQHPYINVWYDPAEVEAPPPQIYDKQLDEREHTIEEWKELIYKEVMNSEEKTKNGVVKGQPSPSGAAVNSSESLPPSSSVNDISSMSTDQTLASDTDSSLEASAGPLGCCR
# experiment.summary: DELFIA kinase assay, JNK3
# Format: biochemical
# condition.details: DELFIA assay
Listed next: entries and their corresponding IC50.

structure	IC50 (nM)
CC(C)NC(=O)c1cccc(C(=O)NCc2cnn(-c3ccc(S(C)(=O)=O)cc3)c2)n1	12
CC(C)NC(=O)c1cccc(C(=O)NCc2cnn(-c3cccc(C#N)c3)c2)n1	20
Cc1nc2ccc(-n3cc(CNC(=O)c4cccc(C(=O)NC(C)C)n4)cn3)cc2n1C	12
CC(C)NC(=O)c1cccc(C(=O)NCc2cnn(-c3cnc4cccnc4c3)c2)n1	10

---

# study.target: JNK1 (Homo sapiens)
# experiment.summary: DELFIA kinase assay, JNK1
# Format: biochemical
# condition.details: DELFIA, biotinylated GST-ATF2 substrate, 10 minute pre-incubation, final ATP 7 uM
pIC50: −log10 of the molar value.
outcome.measure: pIC50

compound	result
CCC(C)NC(=O)c1cccc(C(=O)NCc2ccc3nc(N)sc3c2)n1 (stereo not shown)	7.01 to 8.40
CC(C)NC(=O)c1cccc(C(=O)NCc2cnn(-c3ccccc3)c2)n1	7.01 to 8.40
CC(C)NC(=O)c1cccc(C(=O)NCc2cnn(-c3ccncc3)c2)n1	6.02 to 6.99
CCOC(=O)N1CCC(NC(=O)c2cccc(NCCc3ccncc3)n2)CC1	< 6.00
NC(=O)c1cccc(C(=O)NCc2ccc3nc(N)sc3c2)n1	6.02 to 6.99
CCOC(=O)N1CCC(NC(=O)c2cccc(NCc3cccnc3)n2)CC1	< 6.00
CC(C)C(=O)Nc1cccc(C(=O)NCc2cnn(-c3cccc(C(F)(F)F)c3)c2)n1	6.02 to 6.99
CC(C)NC(=O)c1cccc(C(=O)NCc2ccc3nc(NC(C)C)sc3c2)n1	7.01 to 8.40
CC(C)NC(=O)c1cccc(C(=O)NCc2cnn(-c3ccccc3Cl)c2)n1	6.02 to 6.99
CC(C)C[C@@H](CO)NC(=O)c1cccc(C(=O)NCc2ccc3nc(N)sc3c2)n1 [Compound 21]	6.02 to 6.99
Nc1nc2ccc(CNC(=O)c3cccc(C(=O)N[C@H](CO)Cc4ccccc4)n3)cc2s1 [Compound 22]	< 6.00
CCOC(=O)c1cccc(C(=O)NCc2ccc3nc(N)sc3c2)n1	< 6.00
CC(C)NC(=O)c1cccc(C(=O)NCc2ccc(-c3ccc(C#N)cc3)nc2)n1	6.02 to 6.99
CC(C)NC(=O)c1cccc(C(=O)NCc2ccc3nc(N)sc3c2)n1	7.01 to 8.40
CC(C)NC(=O)c1cccc(C(=O)NCc2cccc(-c3ccccc3)c2)n1	7.01 to 8.40
Nc1nc2ccc(CNC(=O)c3cccc(C(=O)NCCc4ccccc4)n3)cc2s1	< 6.00
CC(=O)N1CCC(NC(=O)c2cccc(C(=O)NCc3ccc4nc(N)sc4c3)n2)CC1	6.02 to 6.99
CC(C)NC(=O)c1cccc(C(=O)NCc2cnn(-c3cccc(S(C)(=O)=O)c3)c2)n1	7.01 to 8.40
Nc1nc2ccc(CNC(=O)c3cccc(C(=O)N4CCCC(O)C4)n3)cc2s1 (stereo not shown)	< 6.00
NC(=O)Nc1cccc(C(=O)NCc2cnn(-c3cccc(C(F)(F)F)c3)c2)n1	6.02 to 6.99
CC(C)NC(=O)c1cccc(C(=O)NCc2cnn(-c3cncc(F)c3)c2)n1	7.01 to 8.40
CC(C)NC(=O)c1cccc(C(=O)NCc2cnn(-c3ccc4[nH]cnc4c3)c2)n1	7.01 to 8.40
CC(C)NC(=O)c1cccc(C(=O)NC(C)c2ccc(S(C)(=O)=O)cc2)n1 (stereo not shown)	6.02 to 6.99
CC(C)NC(=O)c1cccc(C(=O)NCc2ccc(Cl)cc2)n1	6.02 to 6.99
CC(C)NC(=O)c1cccc(C(=O)NCc2ccc(N)nc2)n1	6.02 to 6.99
CS(=O)(=O)c1ccc(CNC(=O)c2cccc(C(=O)NC3CCN(S(=O)(=O)Cc4ccccc4)CC3)n2)cc1	< 6.00
CC(C)NC(=O)c1cccc(C(=O)NCc2cnn(-c3ccc(Cl)cc3)c2)n1	7.01 to 8.40
CC(C)NC(=O)c1cccc(C(=O)NCc2ccc(-c3cccc(C#N)c3)nc2)n1	6.02 to 6.99
Cc1ccc(CNC(=O)c2cccc(C(=O)NC(C)C)n2)cc1F	6.02 to 6.99
Nc1nc2ccc(CNC(=O)c3cccc(C(=O)NC4CC4)n3)cc2s1	6.02 to 6.99
Cc1nc2cc(CNC(=O)c3cccc(C(=O)NC(C)C)n3)ccc2n1C	6.02 to 6.99
CC(C)NC(=O)c1cccc(C(=O)NCc2cnn(-c3ccc([S+](C)[O-])cc3)c2)n1 (stereo not shown)	7.01 to 8.40
CS(=O)(=O)c1ccc(-n2cc(CNC(=O)c3cccc(-n4cc(-c5ccccn5)cn4)n3)cn2)cc1	7.01 to 8.40
CC(C)NC(=O)c1cccc(C(=O)NCc2ccc(-c3cccc(C#N)c3)cc2)n1	6.02 to 6.99

---

# study.target: UniProt P45983
# experiment.summary: DELFIA kinase assay, JNK1
# Type: biochemical
# condition.details: DELFIA, biotinylated GST-ATF2 substrate, 10 minute pre-incubation, final ATP 7 uM

structure	IC50
CC(C)NC(=O)c1cccc(C(=O)NCc2cnn(-c3cc(F)cc(C#N)c3)c2)n1	102 to 959 nM
CC(C)NC(=O)c1cccc(C(=O)NCc2cnn(-c3ccc(S(=O)(=O)N4CCN(C(=O)OC(C)(C)C)CC4)c(Cl)c3)c2)n1	4 to 97 nM
CC(C)NC(=O)c1cccc(C(=O)NCc2ccc(-c3ccc(S(C)(=O)=O)cc3)nc2)n1	102 to 959 nM
O=C(NCc1nc2ccccc2s1)c1cccc(-c2nc3ccccc3[nH]2)n1	102 to 959 nM

---

# study.target: UniProtKB P45984
# Sequence (P45984 whole entry, species assumed): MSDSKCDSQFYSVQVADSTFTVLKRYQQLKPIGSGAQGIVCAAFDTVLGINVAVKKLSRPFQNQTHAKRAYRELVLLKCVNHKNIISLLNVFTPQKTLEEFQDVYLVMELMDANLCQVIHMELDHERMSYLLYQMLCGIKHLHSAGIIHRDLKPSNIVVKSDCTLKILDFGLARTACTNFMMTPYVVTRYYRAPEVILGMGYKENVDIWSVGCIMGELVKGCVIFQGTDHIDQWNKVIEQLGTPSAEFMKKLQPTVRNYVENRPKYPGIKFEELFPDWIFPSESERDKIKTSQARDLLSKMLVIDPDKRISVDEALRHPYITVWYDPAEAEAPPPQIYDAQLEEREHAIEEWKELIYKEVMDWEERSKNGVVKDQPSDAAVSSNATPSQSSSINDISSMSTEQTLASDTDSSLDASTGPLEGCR
# experiment.summary: DELFIA kinase assay, JNK2
# Assay type: biochemical
# condition.details: DELFIA, biotinylated GST-ATF2 substrate, final ATP 4 uM
Listed next: entries and their corresponding IC50.

structure	unit.of.measurement	IC50
CC(C)NC(=O)c1cccc(C(=O)NCc2cnn(-c3ccc(S(=O)(=O)N(C)C)cc3)c2)n1	nM	8
CC(C)NC(=O)c1cccc(C(=O)NCc2cnn(-c3ccc4ncccc4c3)c2)n1	nM	8
CC(C)NC(=O)c1cccc(C(=O)NCc2cnn(-c3cccc(C(F)(F)F)c3)c2)n1	nM	11
CC(C)NC(=O)c1cccc(C(=O)NCc2cnn(-c3ccc(C#N)cc3)c2)n1	nM	48
